- target: KPNA4 ARM Major (Homo sapiens, UniProt O00629)
- Sequence (O00629 60-487): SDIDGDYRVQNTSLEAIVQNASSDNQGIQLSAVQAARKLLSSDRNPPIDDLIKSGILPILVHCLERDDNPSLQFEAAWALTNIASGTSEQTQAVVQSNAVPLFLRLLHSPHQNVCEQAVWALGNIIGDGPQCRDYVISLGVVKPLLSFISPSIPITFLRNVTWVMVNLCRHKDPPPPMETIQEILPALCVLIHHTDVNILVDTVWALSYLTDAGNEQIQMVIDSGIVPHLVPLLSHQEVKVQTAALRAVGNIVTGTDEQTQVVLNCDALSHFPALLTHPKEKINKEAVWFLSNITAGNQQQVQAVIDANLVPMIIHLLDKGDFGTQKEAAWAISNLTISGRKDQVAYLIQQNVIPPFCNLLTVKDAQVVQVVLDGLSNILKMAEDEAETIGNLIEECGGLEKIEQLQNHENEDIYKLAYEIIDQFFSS
Non-standard residues stand in square brackets, D forms with d. Residues, ends and D or L forms follow the SMILES beside them. pS = N[C@@H](COP(=O)(O)O)C(=O)O
// NB: equality with 9 µM counts as No; only Kd strictly below is Yes

Ask: Field: below-cutoff. Rule: recorded Kd strictly less than 9 µM. Subject: CC(=O)NCC(=O)N[C@@H](C)C(=O)N[C@@H](COP(=O)(O)O)C(=O)N1CCC[C@H]1C(=O)N[C@@H](C)C(=O)N[C@@H](CC(C)C)C(=O)N[C@@H](CCCCN)C(=O)N[C@@H](CCCNC(=N)N)C(=O)N[C@@H](CO)C(=O)N[C@@H](Cc1c[nH]cn1)C(=O)N[C@@H](CO)C(=O)N[C@@H](CC(=O)O)C(=O)N[C@@H](CO)C(=O)N[C@@H](Cc1ccc(O)cc1)C(N)=O [CDC25A114–125 pS] (Ac-GA[pS]PALKRSHSDSY-NH2)
Reply: Yes

Ask: Field: below-cutoff. Rule: recorded Kd strictly less than 9 µM. Subject: CC(=O)N[C@@H](CC(N)=O)C(=O)N[C@@H](Cc1ccc(O)cc1)C(=O)N[C@@H](C)C(=O)N1CCC[C@H]1C(=O)N1CCC[C@H]1C(=O)N[C@H](C(=O)N[C@@H](CCCCN)C(=O)N[C@@H](CCCNC(=N)N)C(=O)N[C@@H](CCC(=O)O)C(=O)N[C@@H](CCCNC(=N)N)C(=O)N[C@@H](CCC(=O)O)C(=O)N[C@@H](CO)C(=O)N[C@@H](CO)C(=O)N[C@@H](CC(C)C)C(=O)N[C@H](C(=O)N[C@@H](CCC(N)=O)C(N)=O)[C@@H](C)O)C(C)C [RANBP3_114–129 E (p + 5)] (Ac-NYAPPVKRERESSLTQ-NH2)
Reply: Yes

Ask: Field: below-cutoff. Rule: recorded Kd strictly less than 9 µM. Subject: CC(=O)N[C@@H](CC(N)=O)C(=O)N[C@@H](Cc1ccc(O)cc1)C(=O)N[C@@H](C)C(=O)N1CCC[C@H]1C(=O)N1CCC[C@H]1C(=O)N[C@H](C(=O)N[C@@H](CCCCN)C(=O)N[C@@H](CCCNC(=N)N)C(=O)N[C@@H](CCC(=O)O)C(=O)N[C@@H](CCCNC(=N)N)C(=O)N[C@H](C(=O)N[C@@H](CO)C(=O)N[C@@H](CO)C(=O)N[C@@H](CC(C)C)C(=O)N[C@H](C(=O)N[C@@H](CCC(N)=O)C(N)=O)[C@@H](C)O)[C@@H](C)O)C(C)C [RANBP3_114–129 wt] (Ac-NYAPPVKRERTSSLTQ-NH2)
Reply: Yes

Ask: Field: below-cutoff. Rule: recorded Kd strictly less than 9 µM. Subject: CC(=O)N[C@@H](CC(=O)O)C(=O)N[C@H](C(=O)N[C@@H](CCC(=O)O)C(=O)N[C@@H](Cc1c[nH]cn1)C(=O)NCC(=O)NCC(=O)N[C@@H](CCCCN)C(=O)N[C@@H](CCCNC(=N)N)C(=O)N[C@@H](COP(=O)(O)O)C(=O)N[C@@H](CCCNC(=N)N)C(=O)N[C@@H](CC(C)C)C(=O)N[C@H](C(=O)N1CCC[C@H]1C(=O)N[C@H](C(=O)N[C@@H](CO)C(=O)N[C@@H](Cc1ccc(O)cc1)C(N)=O)C(C)C)[C@@H](C)O)C(C)C [SQSTM1_258–272 pS] (Ac-DVEHGGKR[pS]RLTPVSY-NH2)
Reply: No
